ASSAY TARGET: P. falciparum apicoplast DNA polymerase (Pf-apPOL) (Plasmodium falciparum, UniProt Q8ILY1)
Sequence (Q8ILY1 entry or part of it): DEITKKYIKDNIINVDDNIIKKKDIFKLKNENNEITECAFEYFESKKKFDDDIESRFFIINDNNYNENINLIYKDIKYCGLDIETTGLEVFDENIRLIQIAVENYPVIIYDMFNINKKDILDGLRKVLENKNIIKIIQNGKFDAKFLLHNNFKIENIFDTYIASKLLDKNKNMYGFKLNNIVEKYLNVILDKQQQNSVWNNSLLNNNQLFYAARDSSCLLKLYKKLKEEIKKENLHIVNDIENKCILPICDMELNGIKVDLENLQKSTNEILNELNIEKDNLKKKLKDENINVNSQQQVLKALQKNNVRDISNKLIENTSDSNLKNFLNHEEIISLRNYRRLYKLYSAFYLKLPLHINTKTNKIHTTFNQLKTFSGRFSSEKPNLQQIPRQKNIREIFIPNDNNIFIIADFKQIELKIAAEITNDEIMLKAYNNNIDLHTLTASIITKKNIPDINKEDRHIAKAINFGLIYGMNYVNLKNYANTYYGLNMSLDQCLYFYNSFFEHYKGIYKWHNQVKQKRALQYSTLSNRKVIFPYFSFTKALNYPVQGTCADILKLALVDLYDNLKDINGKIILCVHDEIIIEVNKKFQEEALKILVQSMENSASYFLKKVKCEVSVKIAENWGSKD
TEST: Fluorescence-based high-throughput DNA polymerase assay (molecular beacon), primary screen and dose-response;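 for % inhibition apPOL 180': test concentration in µM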
Format: biochemical
CONDITIONS USED: DRC-1; 180'; concentration 10
ASSAY ENDPOINT: % inhibition apPOL 180'
Just so you know, I need the unit written after the number.

input: Value lookup for % inhibition apPOL 180'; key = CCCCCCCCCCCC1SCC(C(=O)O)N1C(C)=O (stereo not shown) [Molecule 72]
output: 5.5577%

input: Value lookup for % inhibition apPOL 180'; key = COCC(=O)Nc1c(-c2cccc(F)c2)nc2cc(C)ccn12 [Molecule 44, COCC(=O)Nc1c(nc2n1ccc(c2)C)c1cccc(c1)F]
output: 23.452%

input: Value lookup for % inhibition apPOL 180'; key = COc1ccc2c(c1)C(c1ccccc1OC)CC(=O)O2 (stereo not shown) [Molecule 38, COc1ccc2c(c1)C(CC(=O)O2)c1ccccc1OC]
output: 13.8407%

input: Value lookup for % inhibition apPOL 180'; key = Cc1cc(C)cc(-n2nc3c(c2NC(=O)c2ccco2)CSC3)c1 [KU0055926]
output: 27.2882%

input: Value lookup for % inhibition apPOL 180'; key = O=C(c1c[nH]c2ncccc12)N1CCCCCC1 [Molecule 51, O=C(c1c[nH]c2c1cccn2)N1CCCCCC1]
output: -1.621%

input: Value lookup for % inhibition apPOL 180'; key = CCOc1ccc(/C=C2\N=C(c3cc([N+](=O)[O-])cc([N+](=O)[O-])c3)OC2=O)cc1 [Molecule 97]
output: 41.6227%

input: Value lookup for % inhibition apPOL 180'; key = CO/N=C(\C(=O)N[C@@H]1C(=O)N2C(C(=O)[O-])=C(CSc3nc(=O)c([O-])nn3C)CSC12)c1csc(N)n1.[Na+].[Na+] (stereo partly shown) [Molecule 83]
output: -9.688%

----------
ASSAY TARGET: P. falciparum apicoplast DNA polymerase (Pf-apPOL) (Plasmodium falciparum, UniProt Q8ILY1)
TEST: Fluorescence-based high-throughput DNA polymerase assay (molecular beacon), primary screen and dose-response
Format: biochemical
CONDITIONS USED: DRC-2; read at 90'; concentration 20
Assignment: determine reported % inhibition ApPOL 90' 20 for the given molecules.
The figure you give is taken to be in %; do not add the unit.

input: Value lookup for % inhibition ApPOL 90' 20; key = Cc1cccc(-c2noc(C(=O)NNC(=O)C(Cl)(Cl)Cl)n2)c1
output: 24

input: Value lookup for % inhibition ApPOL 90' 20; key = O=C(c1ccccc1)N1CCc2c(nc3cc(-c4ccccc4)[nH]n3c2=O)C1
output: 60

input: Value lookup for % inhibition ApPOL 90' 20; key = Cc1ccsc1Cn1c(C)ccc1C
output: 28

input: Value lookup for % inhibition ApPOL 90' 20; key = N#Cc1c(O)nc(N2CCCCC2)nc1-c1ccc2c(c1)OCO2
output: 47

----------
Assignment: determine reported % inhibition Apo pol 10' for the given compounds.
ASSAY TARGET: P. falciparum apicoplast DNA polymerase (Pf-apPOL) (Plasmodium falciparum, UniProt Q8ILY1)
TEST: Fluorescence-based high-throughput DNA polymerase assay (molecular beacon), primary screen and dose-response
Format: biochemical
CONDITIONS USED: DRC-1; 10'; conc 80
The figure you give is taken to be in %; do not add the unit.

input: Value lookup for % inhibition Apo pol 10'; key = Cc1ccc(N2NC(=O)/C(=C\c3ccc(O)c([N+](=O)[O-])c3)C2=O)cc1Cl [KU0058427]
output: 95.3494

input: Value lookup for % inhibition Apo pol 10'; key = Cc1ccccc1NC(=O)Cn1ccc2c(=O)[nH]ccc21 [Molecule 50, O=C(Cn1ccc2c1cc[nH]c2=O)Nc1ccc(cc1)C]
output: 86.1182

input: Value lookup for % inhibition Apo pol 10'; key = CC(C)CCNC(=O)c1cnn2c(O)cc(CSc3ccc(Cl)cc3)nc12 [Molecule 101]
output: 97.7054

input: Value lookup for % inhibition Apo pol 10'; key = Cc1ccc(NC(=O)Cn2ccc3c(=O)[nH]ccc32)c(C)c1 [KU0205125]
output: 93.6236

Data origin, for the record: paper PMC9090415
